Reference for the values: patent US12624112

Molecular target: T1, Cyno ST2-fc (cyno; human, UniProt A0A2K5UDB8 19-331)
T1 construct: also called cyno ST2 fused with a human IgG1 Fc tag at the C-terminus
T1 sequence: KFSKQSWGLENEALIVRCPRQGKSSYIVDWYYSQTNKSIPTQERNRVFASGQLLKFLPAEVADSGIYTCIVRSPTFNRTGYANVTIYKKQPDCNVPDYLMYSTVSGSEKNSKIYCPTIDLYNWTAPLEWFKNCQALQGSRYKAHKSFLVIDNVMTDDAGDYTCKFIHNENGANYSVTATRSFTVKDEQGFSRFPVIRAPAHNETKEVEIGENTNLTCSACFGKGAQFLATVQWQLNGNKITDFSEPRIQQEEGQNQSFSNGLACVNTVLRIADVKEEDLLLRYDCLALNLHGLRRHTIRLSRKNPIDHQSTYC
Test: SPR Biacore X100, antibody on CM5, cyno ST2-fc analyte
MEASURE: pKd
Give bare numbers, as −log10 of the molar value.

5886-156H+L (antibody, V domains shown, murine antibody) VH: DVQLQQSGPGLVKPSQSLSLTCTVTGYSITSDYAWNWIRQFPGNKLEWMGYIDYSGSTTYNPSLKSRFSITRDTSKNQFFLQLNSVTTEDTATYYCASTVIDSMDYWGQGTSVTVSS VL: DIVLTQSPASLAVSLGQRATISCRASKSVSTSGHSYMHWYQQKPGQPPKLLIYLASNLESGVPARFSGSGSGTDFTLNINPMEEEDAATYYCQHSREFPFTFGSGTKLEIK; 9.69
5888-379H1+L2 (antibody, V domains shown, murine antibody) VH: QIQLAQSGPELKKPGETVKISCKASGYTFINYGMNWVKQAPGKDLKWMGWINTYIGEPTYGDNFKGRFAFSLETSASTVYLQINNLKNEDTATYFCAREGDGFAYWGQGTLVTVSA VL: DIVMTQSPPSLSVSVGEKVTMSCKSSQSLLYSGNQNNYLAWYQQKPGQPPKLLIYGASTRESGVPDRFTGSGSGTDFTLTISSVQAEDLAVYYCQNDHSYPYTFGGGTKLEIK; 10.50

(Q) // returns reported pKd for input 5887-537H3+L1 (antibody, V domains shown, murine antibody; also called 5887-537H3H+L1) VH: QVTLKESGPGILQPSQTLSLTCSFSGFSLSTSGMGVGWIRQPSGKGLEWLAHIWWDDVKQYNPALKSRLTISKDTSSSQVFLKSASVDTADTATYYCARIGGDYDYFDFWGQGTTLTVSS VL: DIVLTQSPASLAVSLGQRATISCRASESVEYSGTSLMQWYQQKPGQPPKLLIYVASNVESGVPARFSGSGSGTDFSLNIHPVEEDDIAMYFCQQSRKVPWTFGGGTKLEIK
(A) 10.09
